studyTarget: STRAD/MO25 dimer (His-STRAD C160 and MO25) (Homo sapiens, UniProt Q7RTN6)
Sequence (Q7RTN6 59-431): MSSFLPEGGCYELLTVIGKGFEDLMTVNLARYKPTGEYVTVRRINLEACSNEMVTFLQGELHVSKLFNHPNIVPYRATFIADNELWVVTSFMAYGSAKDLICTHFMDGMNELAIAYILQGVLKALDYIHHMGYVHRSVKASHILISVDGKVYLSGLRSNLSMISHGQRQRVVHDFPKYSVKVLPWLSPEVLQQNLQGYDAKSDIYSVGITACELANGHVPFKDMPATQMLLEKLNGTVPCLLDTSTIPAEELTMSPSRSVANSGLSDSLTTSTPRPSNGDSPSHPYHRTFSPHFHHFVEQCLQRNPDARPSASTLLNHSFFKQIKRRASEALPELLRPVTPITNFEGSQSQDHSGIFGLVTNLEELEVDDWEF
Sequence (Q9Y376 whole entry partner): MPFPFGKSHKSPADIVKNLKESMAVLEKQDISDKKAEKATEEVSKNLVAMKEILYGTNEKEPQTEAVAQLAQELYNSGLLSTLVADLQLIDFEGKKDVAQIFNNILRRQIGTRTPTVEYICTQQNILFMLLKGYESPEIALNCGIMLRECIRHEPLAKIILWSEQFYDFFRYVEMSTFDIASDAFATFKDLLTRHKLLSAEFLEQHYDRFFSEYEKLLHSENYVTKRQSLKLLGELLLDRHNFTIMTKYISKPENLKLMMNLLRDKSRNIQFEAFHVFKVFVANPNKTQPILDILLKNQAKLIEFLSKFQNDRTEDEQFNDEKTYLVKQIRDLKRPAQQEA
testMethodNotes: TNP-ATP fluorescence displacement
Format: binding
statedConditions: 50 μM compound, 5 μM STRAD-MO25, 5 μM TNP-ATP, pH 7.5, room temperature
observationType: Residual Occupancy (Average) at 50 μM (fraction)

COc1cc(N2CCC(N)CC2)ccc1Nc1ncc(Cl)c(-c2c[nH]c3ccccc23)n1: 0.33
Cc1cc(Nc2ncc(Cl)c(Nc3ccccc3S(=O)(=O)C(C)C)n2)c(OC(C)C)cc1C1CCNCC1: 0.40
CN1CCN(CCOc2cc(OC3CCOCC3)c3c(Nc4c(Cl)ccc5c4OCO5)ncnc3c2)CC1: 0.36
CCOc1cc(C(=O)N2CCC(N3CCN(C)CC3)CC2)ccc1Nc1ncc2c(n1)N(C1CCCC1)c1ccccc1C(=O)N2C: 0.46

====

studyTarget: STRAD/MO25 dimer (His-STRAD C160 and MO25) (Homo sapiens, UniProt Q7RTN6)
testMethodNotes: biochemical
statedConditions: read-out: residual occupancy (Average)
observationType: remaining activity at 50 µM (%)

Example cases with answers are listed next.
Cc1[nH]c2ccccc2c1C1=C(NCCc2ccc(F)cc2)C(=O)N(C)C1=O [IM-12]: 58
COc1cc(Nc2ncc(F)c(Nc3ccc4c(n3)N(COP(=O)(O)O)C(=O)C(C)(C)O4)n2)cc(OC)c1OC [Fostamatinib (R788)]: 52
N#C/C(=C(/N)Sc1ccc(N)cc1)c1ccccc1C(F)(F)F [SL-327]: 54

A. Cc1c[nH]c2nc(Nc3ccc(N4CCN(C)CC4)c(F)c3)nc(-c3cccc(CC#N)c3)c12 [SGI-7079]
B. Nc1ncnc2c1c(-c1cccc(OCc3ccccc3)c1)cn2[C@H]1C[C@@H](CN2CCC2)C1 [NVP-AEW541]
Q: Compare A and B by numeric remaining activity at 50 µM and name the larger one. Pick one and reply with its label.
A: A
